molecular target: Escherichia coli DNA gyrase A/B tetramer (Escherichia coli (strain K12), UniProt P0AES4+P0AES6); experiment: DNA gyrase supercoiling activity fluorescence polarisation assay; assay type: biochemical; details: 5 nM enzyme, relaxed plasmid, 0.3 mM ATP, ambient temperature; read-out: E. coli DNA gyrase supercoiling IC50
Binarize IC50 at 3 µM; below is 1 (yes), at or above is 0 (no).

COMPOUND	GROUP LABEL
C[C@@H]1CN2c3c(cc4c(NCC5CCOCC5)noc4c3F)CC3(C(=O)NC(=O)NC3=O)[C@H]2[C@H](C)O1 (relative stereo) [Example 19]	1 (yes)

[in] Here's an entry: C[C@@H]1CN2c3c(cc4c(-c5scnc5C(=O)N5CCOCC5)noc4c3F)CC3(C(=O)NC(=O)NC3=O)[C@H]2[C@H](C)O1 (relative stereo) [Example 85] . Is its IC50 below 3 µM?
[out] 0 (no)

[in] Lab log: compare recorded IC50 with 3 µM; is it strictly lower for C[C@@H]1CN2c3c(cc4c(C(=O)N5CCCCO5)noc4c3F)CC3(C(=O)NC(=O)NC3=O)[C@H]2[C@H](C)O1 (relative stereo) [Example 153] ?
[out] 0 (no)

[in] A record lists CC1O[C@H](C)CN2c3c(cc4c(-c5cnccn5)noc4c3F)CC3(C(=O)NC(=O)NC3=O)[C@H]12 (stereo in doubt) [Example 165(a)] . Is its IC50 below 3 µM?
[out] 0 (no)

[in] Strictly below 3 µM: is that where IC50 of C[C@@H]1CN2c3c(nc4c(-c5sc(Cl)nc5Cl)noc4c3Cl)CC3(C(=O)NC(=O)NC3=O)[C@H]2[C@H](C)O1 (relative stereo) [Example 116] sits?
[out] 1 (yes)

[in] Identify whether the compound C[C@@H]1CN2c3c(cc4c(NCC5CCCCC5)noc4c3F)CC3(C(=O)NC(=O)NC3=O)[C@H]2[C@H](C)O1 (relative stereo) [Example 18] records IC50 below 3 µM.
[out] 1 (yes)
